- experimental protocol: RP, Waters SunFire C18, 50 × 4.6 mm, 3.5 µm, 0.5 mL/min, estimated dead time 1.1 min; A: water + 0.1% formic acid; B: acetonitrile + 0.1% formic acid; gradient (min/%B) 0/5 7/100 8/100
- setup conditions: stereoisomer not certain
// LC retention time lookup, one value per entry
The figure you give is taken to be in min; do not add the unit.

The following compounds have reported results that may help.
[
  {
    "compound": "CC(=O)OCC1OC(Oc2cc(O)c3c(=O)cc(C)oc3c2C)C(OC(C)=O)C(OC(C)=O)C1OC(C)=O (centres undefined)",
    "measured metric": "LC retention time",
    "measured number": 5.9
  },
  {
    "compound": "CC(C)CC(NC(=O)c1ccccc1)C(=O)OCC(Cc1ccccc1)NC(=O)c1ccccc1 (centres undefined)",
    "measured metric": "LC retention time",
    "measured number": 6.82
  },
  {
    "compound": "Cc1cc(=O)c2c(O)cc(O)c(C)c2o1",
    "measured metric": "LC retention time",
    "measured number": 4.65
  },
  {
    "compound": "Cc1cc(O)c(C=O)c(O)c1C(=O)OCc1cc(O)c(C)c(O)c1C(=O)O",
    "measured metric": "LC retention time",
    "measured number": 6.74
  },
  {
    "compound": "COc1cc(C)c(C(=O)Oc2cc(C)c(C(=O)O)c(O)c2C)c(OC)c1C",
    "measured metric": "LC retention time",
    "measured number": 7.09
  },
  {
    "compound": "CCCCCc1cc(OC(=O)c2c(O)cc(O)cc2CCCCC)cc(O)c1C(=O)O",
    "measured metric": "LC retention time",
    "measured number": 7.28
  }
]

-- ask I have this compound here, COc1cc(C)c(C(=O)Oc2cc(C)c(C(=O)O)c(O)c2C)c(O)c1C , and I need its recorded LC retention time.
-- reply 7.26

-- ask Same lookup for CCCc1cc(O)cc(O)c1C(=O)O , please.
-- reply 4.15

###

// LC retention time lookup, one value per entry
- experimental protocol: RP, Waters SunFire C18, 50 × 4.6 mm, 3.5 µm, 0.5 mL/min, estimated dead time 1.1 min; A: water + 0.1% formic acid; B: acetonitrile + 0.1% formic acid; gradient (min/%B) 0/5 7/100 8/100
- setup conditions: stereoisomer not certain
The figure you give is taken to be in min; do not add the unit.

[
  {
    "compound": "COC(=O)C(CC(C)C)NC(=O)C(=C1OC(=O)C(c2ccccc2)=C1O)c1ccccc1 (stereo not drawn)",
    "unit info": "min",
    "LC retention time": 7.82
  },
  {
    "compound": "CCCCCc1cc(OC)c(O)c2c1C(=O)Oc1cc(O)c(C(=O)O)c(CCCCC)c1O2",
    "unit info": "min",
    "LC retention time": 7.36
  },
  {
    "compound": "COC(=O)C12Oc3ccc(-c4ccc5c(c4O)C(O)=C4C(=O)CC(C)C(O)C4(C(=O)OC)O5)c(O)c3C(O)=C1C(=O)CC(C)C2O (stereo not drawn)",
    "unit info": "min",
    "LC retention time": 6
  },
  {
    "compound": "CCCCCC(=O)Cc1cc(O)c(O)c2c1C(=O)Oc1cc(O)c(C(=O)O)c(CCCCC)c1O2",
    "unit info": "min",
    "LC retention time": 6.62
  }
]

-- ask I have this compound here, CCCCCc1c(C(=O)O)c(O)cc2oc3cc(OC)cc(CCC)c3c12 , and I need its recorded LC retention time.
-- reply 7.09

-- ask Same lookup for Cc1cc(O)c(C)c(O)c1C(=O)O , please.
-- reply 3.99

-- ask Same lookup for CCCc1cc(OC(=O)c2c(O)cc(OC)cc2CCC)cc(O)c1C(=O)O , please.
-- reply 7.33

-- ask Same lookup for CC1CCC2(C(=O)O)CCC3(C)C(=CCC4C5(C)CCC(O)C(C)(C)C5CCC43C)C2C1C (stereo not drawn) , please.
-- reply 7.89

-- ask Same lookup for COC(=O)C(=C1OC(=O)C(c2ccccc2)=C1O)c1ccccc1 , please.
-- reply 7.49

###

// LC retention time lookup, one value per entry
- experimental protocol: RP, Waters SunFire C18, 50 × 4.6 mm, 3.5 µm, 0.5 mL/min, estimated dead time 1.1 min; A: water + 0.1% formic acid; B: acetonitrile + 0.1% formic acid; gradient (min/%B) 0/5 7/100 8/100
- setup conditions: stereoisomer not certain
The figure you give is taken to be in min; do not add the unit.

[
  {
    "compound": "COC(=O)c1c(C)cc(OC(=O)c2c(C)cc(O)c(C=O)c2O)c(C)c1O",
    "LC retention time (min)": 7.14
  }
]

-- ask I have this compound here, Cc1cc(O)c2c(c1)C(=O)c1cccc(O)c1C2=O , and I need its recorded LC retention time.
-- reply 6.39

-- ask Same lookup for Cc1cc(=O)c2c(O)c3c(cc2o1)C(=O)C(=O)C=C3O , please.
-- reply 3.87

###

- experimental protocol: RP, Waters SunFire C18, 50 × 4.6 mm, 3.5 µm, 0.5 mL/min, estimated dead time 1.1 min; A: water + 0.1% formic acid; B: acetonitrile + 0.1% formic acid; gradient (min/%B) 0/5 7/100 8/100
- setup conditions: stereoisomer not certain
// LC retention time lookup, one value per entry
The figure you give is taken to be in min; do not add the unit.

The following molecules have reported results that may help.
[
  {
    "molecule": "C=C1C(=O)OC(CCCCCCCCCCCCCC(C)O)C1C(=O)O (stereo not given)",
    "measured metric": "LC retention time",
    "unit info": "min",
    "measured number": 6.53
  },
  {
    "molecule": "COc1cc(O)c2c(c1)C(=O)c1cc(C=O)cc(O)c1C2=O",
    "measured metric": "LC retention time",
    "unit info": "min",
    "measured number": 6
  },
  {
    "molecule": "COc1cc(C)c(C(=O)Oc2c(C)c(C(=O)O)c(O)c(C=O)c2O)c(O)c1C=O",
    "measured metric": "LC retention time",
    "unit info": "min",
    "measured number": 6.37
  },
  {
    "molecule": "COc1cc(C)c(C(=O)Oc2c(C)c(C(=O)O)c(O)c(C=O)c2O)c(O)c1C(=O)O",
    "measured metric": "LC retention time",
    "unit info": "min",
    "measured number": 5.8
  }
]

Now turn to the next molecule.
-- ask I have this molecule here, CC1OC2(C(C)C(O)C1C)C(C)C1OC(=O)C2(C)C(=O)C1C (stereo not given) , and I need its recorded LC retention time.
-- reply 5.25

###

- experimental protocol: RP, Waters SunFire C18, 50 × 4.6 mm, 3.5 µm, 0.5 mL/min, estimated dead time 1.1 min; A: water + 0.1% formic acid; B: acetonitrile + 0.1% formic acid; gradient (min/%B) 0/5 7/100 8/100
- setup conditions: stereoisomer not certain
In plain terms, low LC retention time, meaning strictly below 7 min, gives 1 (yes), and everything else gives 0 (no).

-- ask Below 7 min on LC retention time? Entry Cc1cc(=O)c2c(O)c(C)c(O)cc2o1
-- reply 1 (yes)

-- ask Same lookup for COc1cc(C)c(C(=O)Oc2c(C)cc(O)c(C=O)c2O)c(O)c1C(=O)O , please.
-- reply 1 (yes)

-- ask Same lookup for CCCCCC(=O)Cc1cc(O)cc(O)c1C(=O)Oc1cc(CC(=O)CCCCC)c(C(=O)O)c(OC)c1 , please.
-- reply 1 (yes)

###

// LC retention time lookup, one value per entry
- experimental protocol: RP, Waters SunFire C18, 50 × 4.6 mm, 3.5 µm, 0.5 mL/min, estimated dead time 1.1 min; A: water + 0.1% formic acid; B: acetonitrile + 0.1% formic acid; gradient (min/%B) 0/5 7/100 8/100
- setup conditions: stereoisomer not certain
The figure you give is taken to be in min; do not add the unit.

The following compounds have reported results that may help.
[
  {
    "compound": "COc1cc2oc(C)cc(=O)c2c(O)c1COC(=O)C=C(C)CC(=O)O",
    "LC retention time, min": 5.06
  },
  {
    "compound": "CCCCCCCCCCCCCCC(C(=O)OC)C(CC(=O)O)C(=O)O (stereo unspecified)",
    "LC retention time, min": 8
  },
  {
    "compound": "Cc1cc(O)c(C=O)c(O)c1C(=O)O",
    "LC retention time, min": 7.07
  },
  {
    "compound": "C=C1C(=O)OC(CCCCCCCCCCCCC)C1C(=O)O (stereo unspecified)",
    "LC retention time, min": 7.88
  },
  {
    "compound": "Cc1cc(O)c(C)c2c1C(=O)Oc1cc(O)c(C(=O)O)c(C)c1O2",
    "LC retention time, min": 5.27
  }
]

-- ask I have this compound here, COC(=O)C(Cc1ccccc1)NC(=O)C(=C1OC(=O)C(c2ccccc2)=C1O)c1ccccc1 (stereo unspecified) , and I need its recorded LC retention time.
-- reply 7.65
